# test_target: human recombinant GR (Homo sapiens, UniProt P04150)
# test_protocol: Human Glucocorticoid Receptor (GR) Fluorescence Polarisation (FP) Binding Assay
# measurement_context: Ki from IC50 by ligand depletion correction; displacement of Fluorome GS Red
measured_attribute: Ki

>>> df
                                 cpd_smiles                               test_target          result
0  Cn1ccc(S(=O)(=O)N2CC[C@H]3Cc4c(cnn4-c4ccc(F)cc4)C[C@]3(C(=O)c3cc(C(F)(F)F)ccn3)C2)n1  human recombinant GR (Homo sapiens, UniProt P04150)  500 to 1000 pM
1  CCCn1ncc(S(=O)(=O)N2CC[C@H]3Cc4c(cnn4-c4ccc(F)cc4)C[C@]3(C(=O)c3ccccn3)C2)n1  human recombinant GR (Homo sapiens, UniProt P04150)        < 500 pM
2  CC(C)n1cc(S(=O)(=O)N2CC[C@H]3Cc4c(cnn4-c4ccc(F)cc4)C[C@]3(C(=O)c3ccccn3)C2)cn1  human recombinant GR (Homo sapiens, UniProt P04150)        < 500 pM

Recorded Ki for O=C(c1nccs1)[C@]12Cc3cnn(-c4ccc(F)cc4)c3C[C@@H]1CCN(S(=O)(=O)c1ccc(C(F)(F)F)cc1)C2 with human recombinant GR (Homo sapiens, UniProt P04150), please? > 1000 pM

Recorded Ki for CCCn1cc(S(=O)(=O)N2CC[C@H]3Cc4c(cnn4-c4ccc(F)cc4)C[C@]3(C(=O)c3nccs3)C2)cn1 with human recombinant GR (Homo sapiens, UniProt P04150), please? < 500 pM

Recorded Ki for CCCn1nncc1S(=O)(=O)N1CC[C@H]2Cc3c(cnn3-c3ccc(F)cc3)C[C@]2(C(=O)c2nccs2)C1 with human recombinant GR (Homo sapiens, UniProt P04150), please? > 1000 pM

###

# test_target: glucocorticoid receptor (Homo sapiens)
# Construct: endogenous in cells; host or cells: HepG2
# Sequence (P04150 whole entry): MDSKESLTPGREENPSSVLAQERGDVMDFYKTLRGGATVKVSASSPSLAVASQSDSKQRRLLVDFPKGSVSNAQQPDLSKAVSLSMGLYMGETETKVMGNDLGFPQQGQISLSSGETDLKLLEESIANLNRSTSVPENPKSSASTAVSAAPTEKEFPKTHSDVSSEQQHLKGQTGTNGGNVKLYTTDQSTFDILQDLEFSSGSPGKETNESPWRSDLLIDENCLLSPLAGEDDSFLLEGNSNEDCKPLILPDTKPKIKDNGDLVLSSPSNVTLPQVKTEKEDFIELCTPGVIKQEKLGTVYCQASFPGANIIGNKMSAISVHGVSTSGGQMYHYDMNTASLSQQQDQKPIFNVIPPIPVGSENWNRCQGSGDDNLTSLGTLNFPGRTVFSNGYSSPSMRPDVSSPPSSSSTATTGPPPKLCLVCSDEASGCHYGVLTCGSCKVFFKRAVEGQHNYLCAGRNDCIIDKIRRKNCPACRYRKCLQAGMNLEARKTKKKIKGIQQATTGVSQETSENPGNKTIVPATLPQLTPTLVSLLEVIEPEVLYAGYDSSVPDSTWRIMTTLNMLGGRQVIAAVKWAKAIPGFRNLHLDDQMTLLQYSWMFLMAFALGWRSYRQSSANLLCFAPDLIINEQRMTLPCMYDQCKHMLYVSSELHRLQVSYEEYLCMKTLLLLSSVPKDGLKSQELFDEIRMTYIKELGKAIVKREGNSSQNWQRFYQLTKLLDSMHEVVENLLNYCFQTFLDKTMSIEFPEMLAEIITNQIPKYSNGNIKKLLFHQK
# test_protocol: HepG2 Tyrosine Aminotransferase (TAT) Assay
# Format: cell-based
# Ki per record follows

                                 cpd_smiles                             test_target  measured_attribute   result
0  CC(C)n1ncc(S(=O)(=O)N2CC[C@H]3Cc4c(cnn4-c4ccc(F)cc4)C[C@]3(C(=O)c3cscn3)C2)n1  glucocorticoid receptor (Homo sapiens)                  Ki  < 20 nM

Look up Ki for this compound: Cn1ccc(S(=O)(=O)N2CC[C@H]3Cc4c(cnn4-c4ccc(F)cc4)C[C@]3(C(=O)c3cc(C(F)(F)F)ccn3)C2)n1 20 to 100 nM

Look up Ki for this compound: Cn1nccc1S(=O)(=O)N1CC[C@H]2Cc3c(cnn3-c3ccc(F)cc3)C[C@]2(C(=O)c2cc(C(F)(F)F)ccn2)C1 20 to 100 nM

Look up Ki for this compound: Cn1cc(S(=O)(=O)N2CC[C@H]3Cc4c(cnn4-c4ccc(F)cc4)C[C@]3(C(=O)c3cc(C(F)(F)F)ccn3)C2)nn1 20 to 100 nM

###

# test_target: human recombinant GR (Homo sapiens, UniProt P04150)
# test_protocol: Human Glucocorticoid Receptor (GR) Fluorescence Polarisation (FP) Binding Assay
# measurement_context: Ki from IC50 by ligand depletion correction; displacement of Fluorome GS Red
measured_attribute: Ki

Worked cases, Ki given:
                                   compound  measured_attribute       result
0  Cn1ncc(S(=O)(=O)N2CC[C@H]3Cc4c(cnn4-c4ccc(F)cc4)C[C@]3(C(=O)c3cscn3)C2)n1 [Example 2AI]                  Ki       > 1 nM
1  O=C(c1cscn1)[C@]12Cc3cnn(-c4ccc(F)cc4)c3C[C@@H]1CCN(S(=O)(=O)c1cccc(C(F)(F)F)n1)C2 [Example 2AH]                  Ki  0.5 to 1 nM

Proceeding to the next compound to report its Ki.
Recorded Ki for CCCn1cc(S(=O)(=O)N2CC[C@H]3Cc4c(cnn4-c4ccc(F)cc4)C[C@]3(C(=O)c3ccccn3)C2)cn1 [Example 2B] with human recombinant GR (Homo sapiens, UniProt P04150), please? < 0.5 nM
